Value source: paper PMC12301332

Target: CXCR2 (Homo sapiens, UniProt P25025)
Construct: expressed in transfected cells
Sequence (P25025 whole entry): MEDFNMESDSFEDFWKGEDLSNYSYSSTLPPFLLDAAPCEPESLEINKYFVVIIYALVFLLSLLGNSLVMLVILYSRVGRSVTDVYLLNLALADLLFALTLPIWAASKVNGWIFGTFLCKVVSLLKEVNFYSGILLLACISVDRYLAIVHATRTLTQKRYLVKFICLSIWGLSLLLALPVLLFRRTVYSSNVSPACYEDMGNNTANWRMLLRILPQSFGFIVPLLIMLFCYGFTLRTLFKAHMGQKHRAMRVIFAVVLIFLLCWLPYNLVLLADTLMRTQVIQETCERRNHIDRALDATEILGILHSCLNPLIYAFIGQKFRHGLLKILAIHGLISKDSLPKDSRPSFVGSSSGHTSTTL
Assay: NanoBRET β-arrestin1 recruitment inhibition assay (NanoLux) in HEK293A cells
Assay type: cell-based
Conditions: CXCL3 at EC80; normalized to Imax of navarixin = 100%; n = 3
Listed here are molecules together with their documented Imax βarr1 (maximum observed inhibitory effect).
Give your result in % as a bare value.

Known results for molecules:
| molecule | unitAbbrev | testValue |
| --- | --- | --- |
| CC(CO)Nc1nc(SCc2cccc(F)c2F)nc2ncsc12 (centres unmarked) [MVH-22] | % | 100 |
| CCCC(C)CSc1nc(NC(C)CO)c2nn[nH]c2n1 (centres unmarked) [MVH-82] | % | 100 |
| C[C@H](CO)Nc1nc(SCc2cccc(Cl)c2F)nc2[nH]c(=O)sc12 [AZ10397767, reference compound] | % | 100 |
| CC(CO)Nc1nc(SCc2cccc(F)c2F)nc2oncc12 (centres unmarked) [MVH-24] | % | 99.42 |
| CC(CO)Nc1nc(SCc2cccc(F)c2F)nc2nc(N)sc12 (centres unmarked) [MVH-23] | % | 100 |

Q: Determine its reported Imax βarr1 (maximum observed inhibitory effect): CC(CO)Nc1nc(SCc2cccc(F)c2F)nc2[nH]cnc12 (centres unmarked) [MVH-15]
Ans: 100

Q: Determine its reported Imax βarr1 (maximum observed inhibitory effect): CC(CO)Nc1nc(SCc2cccc(F)c2F)nc2cnccc12 (centres unmarked) [MVH-3]
Ans: 100

Q: Determine its reported Imax βarr1 (maximum observed inhibitory effect): CC(CCO)Nc1nc(SCc2cccc(F)c2F)nc2[nH]nnc12 (centres unmarked) [MVH-33]
Ans: 96.91
